# Assay remarks: CHI Log D measurement (chromatographic hydrophobicity index)
# Condition summary: pH 7.4
Non-standard residues stand in square brackets, D forms with d. Residues, ends and D or L forms follow the SMILES beside them. αAllylPro = C=CC[C@@]1(C(=O)O)CCCN1; Ala(cPr) = N[C@@H](CC1CC1)C(=O)O; S5 = C=CCCC[C@](C)(N)C(=O)O
Endpoint: chromatographic logD

[
  {
    "Molecule": "C=CCCC[C@](C)(NC(=O)[C@H](CC(C)C)NC(=O)[C@H](CC1CC1)NC(=O)[C@]1(CC=C)CCCN1C(C)=O)C(=O)N[C@@H](Cc1ccc(O)cc1)C(=O)N[C@@H](CC(C)C)C(=O)N[C@@H](CC(C)C)C(=O)N[C@@H](CCC(N)=O)C(=O)N[C@@H](CC(=O)O)C(=O)NC [PLL7-7 variant 5] (Ac-[αAllylPro][Ala(cPr)]L[S5]YLLQD-NHMe)",
    "Recorded result": 2.3
  },
  {
    "Molecule": "C=CCCC[C@](C)(NC(=O)[C@H](CC(C)C)NC(=O)[C@H](CC(C)C)NC(=O)[C@]1(CC=C)CCCN1C(C)=O)C(=O)N[C@@H](Cc1ccc(O)cc1)C(=O)N[C@@H](CC(C)C)C(=O)N[C@@H](CC(C)C)C(=O)N[C@@H](CC(=O)O)C(=O)N[C@@H](CC(=O)O)C(=O)NC [PLL5-2 variant 5] (Ac-[αAllylPro]LL[S5]YLLDD-NHMe)",
    "Recorded result": 1.8
  },
  {
    "Molecule": "CC(=O)N1CCC[C@]12CC=CCCC[C@@](C)(C(=O)N[C@@H](CCCNC(=N)N)C(=O)N[C@@H](CC(C)C)C(=O)N[C@@H](CC(C)C)C(=O)N[C@@H](Cc1c[nH]cn1)C(=O)N[C@@H](CC(=O)O)C(N)=O)NC(=O)[C@H](CC(C)C)NC(=O)[C@H](CC(C)C)NC2=O (single isomer, unassigned) [PLL7-9 variant 3]",
    "Recorded result": 1.9
  }
]

====

chromatographic logD reference
# Assay remarks: CHI Log D measurement (chromatographic hydrophobicity index)
# Condition summary: reverse-phase HPLC, Phenomenex Gemini C-18 column, pH 7.4
Starred links: 1 amine or outer side, 2 acyl side, 3 side chain; linkers in the order of their positions; H or OH if unused. Positions of bridges follow the written chain, without caps; N, C: chain ends. Non-standard residues stand in square brackets, D forms with d. Residues, ends and D or L forms follow the SMILES beside them. X1 = O=C([C@]1(CC=[*:3])CCCN1[*:1])[*:2]; Ala(cPr) = N[C@@H](CC1CC1)C(=O)O; S5 = C=CCCC[C@](C)(N)C(=O)O; Nle = CCCC[C@H](N)C(=O)O

[
  {
    "Compound": "CCCC[C@H](NC(=O)[C@]1(C)CCCC=CC[C@]2(CCCN2C(C)=O)C(=O)N[C@@H](CC(C)C)C(=O)N[C@@H](CCCNC(=N)N)C(=O)N1)C(=O)N[C@@H](CC(C)C)C(=O)N[C@@H](C)C(=O)N[C@@H](Cc1ccc(O)cc1)C(=O)NC [PLL4-12, Ac-PL3-Leu-Arg-S5-Nle-Leu-Ala-Tyr-NHMe] (Ac-[X1]LR[S5][Nle]LAY-NHMe; staple 1-4)",
    "chromatographic logD": 2.7
  },
  {
    "Compound": "CC[C@H](C)[C@@H]1NC(=O)[C@]2(CC=CCCC[C@@](C)(C(=O)N[C@@H](Cc3ccc(O)cc3)C(=O)N[C@@H](CC(C)C)C(=O)N[C@@H](CC(C)C)C(=O)N[C@@H](CC(=O)O)C(=O)NC)NC(=O)[C@H](CC(C)C)NC1=O)CCCN2C(C)=O [PLL5-4, Ac-PL3-Ile-Leu-S5-Tyr-Leu-Leu-Asp-NHMe] (Ac-[X1]IL[S5]YLLD-NHMe; staple 1-4)",
    "chromatographic logD": 2.4
  },
  {
    "Compound": "CNC(=O)[C@H](Cc1ccc(O)cc1)NC(=O)[C@H](CC(C)C)NC(=O)[C@H](CC(C)C)NC(=O)[C@H](Cc1c[nH]cn1)NC(=O)[C@H](CCCNC(=N)N)NC(=O)[C@]1(C)CCCC=CC[C@]2(CCCN2C(C)=O)C(=O)N[C@@H](CC(C)C)C(=O)N[C@@H](CC(C)C)C(=O)N1 [PLL4-2] (Ac-[X1]LL[S5]RHLLY-NHMe; staple 1-4)",
    "chromatographic logD": 2.7
  },
  {
    "Compound": "CNC(=O)[C@H](CC(=O)O)NC(=O)[C@H](CC(C)C)NC(=O)[C@H](CC(C)C)NC(=O)[C@H](Cc1ccc(O)cc1)NC(=O)[C@]1(C)CCCC=CC[C@]2(CCCN2C(C)=O)C(=O)N[C@@H](CC(C)C)C(=O)N[C@@H](CC(C)C)C(=O)N1 [PLL4-10, Ac-PL3-Leu-Leu-S5-Tyr-Leu-Leu-Asp-NHMe] (Ac-[X1]LL[S5]YLLD-NHMe; staple 1-4)",
    "chromatographic logD": 2.4
  },
  {
    "Compound": "CNC(=O)[C@H](CC(=O)O)NC(=O)[C@H](CC(C)C)NC(=O)[C@H](CC(C)C)NC(=O)[C@H](Cc1ccc(O)cc1)NC(=O)[C@H](CCCNC(=N)N)NC(=O)[C@]1(C)CCCC=CC[C@]2(CCCN2C(C)=O)C(=O)N[C@@H](C)C(=O)N[C@@H](CC(C)C)C(=O)N1 [PLL4-4] (Ac-[X1]AL[S5]RYLLD-NHMe; staple 1-4)",
    "chromatographic logD": 2.3
  },
  {
    "Compound": "CNC(=O)[C@H](CC(=O)O)NC(=O)[C@H](CC(C)C)NC(=O)[C@H](CC(C)C)NC(=O)[C@H](CCCNC(=N)N)NC(=O)[C@]1(C)CCCC=CC[C@]2(CCCN2C(C)=O)C(=O)N[C@@H](CC(C)C)C(=O)N[C@@H](CC(C)C)C(=O)N1 [PLL5-8, Ac-PL3-Leu-Leu-S5-Arg-Leu-Leu-Asp-NHMe] (Ac-[X1]LL[S5]RLLD-NHMe; staple 1-4)",
    "chromatographic logD": 2.1
  },
  {
    "Compound": "CNC(=O)[C@H](CCC(N)=O)NC(=O)[C@H](CC(C)C)NC(=O)[C@H](CC(C)C)NC(=O)[C@H](Cc1ccc(O)cc1)NC(=O)[C@]1(C)CCCC=CC[C@]2(CCCN2C(C)=O)C(=O)N[C@@H](CC(C)C)C(=O)N[C@@H](CC(C)C)C(=O)N1 [PLL5-12, Ac-PL3-Leu-Leu-S5-Tyr-Leu-Leu-Gln-NHMe] (Ac-[X1]LL[S5]YLLQ-NHMe; staple 1-4)",
    "chromatographic logD": 3.2
  },
  {
    "Compound": "CC[C@H](C)[C@@H]1NC(=O)[C@]2(CC=CCCC[C@@](C)(C(=O)N[C@@H](CCCNC(=N)N)C(=O)N[C@@H](CC(C)C)C(=O)N[C@@H](CC(C)C)C(=O)N[C@@H](CCC(N)=O)C(=O)N[C@@H](Cc3ccc(O)cc3)C(=O)NC)NC(=O)[C@H](CC(C)C)NC1=O)CCCN2C(C)=O [PLL4-1] (Ac-[X1]IL[S5]RLLQY-NHMe; staple 1-4)",
    "chromatographic logD": 2.9
  },
  {
    "Compound": "CNC(=O)[C@H](Cc1ccc(O)cc1)NC(=O)[C@H](Cc1c[nH]cn1)NC(=O)[C@H](CC(C)C)NC(=O)[C@H](CC(C)C)NC(=O)[C@H](CCCNC(=N)N)NC(=O)[C@]1(C)CCCC=CC[C@]2(CCCN2C(C)=O)C(=O)N[C@@H](CC(C)C)C(=O)N[C@@H](CC(C)C)C(=O)N1 [PLL4-3] (Ac-[X1]LL[S5]RLLHY-NHMe; staple 1-4)",
    "chromatographic logD": 2.7
  },
  {
    "Compound": "CNC(=O)[C@@H](NC(=O)[C@H](CC(C)C)NC(=O)[C@H](CC(C)C)NC(=O)[C@H](CC1CC1)NC(=O)[C@]1(C)CCCC=CC[C@]2(CCCN2C(C)=O)C(=O)N[C@@H]([C@@H](C)O)C(=O)N[C@@H](CC(C)C)C(=O)N1)[C@@H](C)O [PLL7-23, Ac-PL3-Thr-Leu-S5-Cpa-Leu-Leu-Thr-NHMe] (Ac-[X1]TL[S5][Ala(cPr)]LLT-NHMe; staple 1-4)",
    "chromatographic logD": 3.2
  },
  {
    "Compound": "CNC(=O)[C@H](CC(=O)O)NC(=O)[C@H](CCC(N)=O)NC(=O)[C@H](CC(C)C)NC(=O)[C@H](CC(C)C)NC(=O)[C@H](CCCNC(=N)N)NC(=O)[C@]1(C)CCCC=CC[C@]2(CCCN2C(C)=O)C(=O)N[C@@H](CC2CC2)C(=O)N[C@@H](CC(C)C)C(=O)N1 [PLL7-5] (Ac-[X1][Ala(cPr)]L[S5]RLLQD-NHMe; staple 1-4)",
    "chromatographic logD": 2
  }
]
